- measured on: T1, mouse IL-18BPd-human IgG Fc (R&D Systems, Cat. #122-BP-100) (mouse; human, UniProt Q9Z0M9 29-193)
- T1 construct: Bought; also called mouse IL-18BPd-Fc Chimera
- T1 sequence (looked up): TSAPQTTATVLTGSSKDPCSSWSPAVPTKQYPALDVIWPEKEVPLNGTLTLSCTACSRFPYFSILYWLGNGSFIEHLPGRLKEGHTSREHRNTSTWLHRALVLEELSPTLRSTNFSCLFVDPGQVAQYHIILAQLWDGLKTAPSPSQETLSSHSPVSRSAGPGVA
- experimental details: blocking ELISA, competitor mouse IL-18
quantity measured: blocking ELISA signal normalized to isotype control (=1)

1. anti-IL18BP antibody BP-15 (antibody, human IgG1, V domains shown) VH: QVQLVQSGAEVKKPGASVKVSCKASGYTFTTYDINWVRQAPGQGLEWMGIINPSGGSTSYAQKFQGRVTMTRDTSTSTVYMELSSLRSEDTAVYYCATGIGELDFDYWGQGTLVTVSS VL: DIQMTQSPSSLSASVGDRVTITCRASQSISSYLNWYQQKPGKAPKLLIYKASTLHNGVPSRFSGSGSGTDFTLTISNLQPEDFATYYCQQAISFPLTFGGGTKVEIK; 0.211 ratio to isotype control
2. anti-IL18BP antibody BP-04 (antibody, V domains shown, also called BP-04 (hybridoma); BP-04 (parental)) VH: HVHLHQSGAELVRPGVSVKISCRGSGYTFTDYDVHWVKQSHAKSLEWIGVISTYYGDVGYNQEFKGKATMTLDKSSSTSYLELARLTSEDSAIYYCARSGTYYYGTRESHALDYWGQGTSVTVSS VL: DIQMTQSPASLSVSVGETVTITCRTSDNVYSNLAWYQQKQGKSPQLLVYGAINLADGVPSRFSGSGSDTQYSLKINNLQSEDFGSYYCQHFWGNPYTFGGGTKLEIK; 0.122 ratio to isotype control
3. anti-IL18BP antibody BP-13 (antibody, human IgG1, V domains shown) VH: QVQLQQSGAELVRPGASVTLSCKASGYTFTDYEMHWVKQTPVHGLEWIGPIDPETGDTAYNQKFKGQATLTADKSSSTAYMELSSLTSEDSAVYYCTRGSRGVFDYWGQGTALTVSS VL: DIVMTQSHKFMSTSVGDRVSITCKASQDVGTAVAWYQQKPGQSPKLLIYWASARHTGVPDRFTGSGSGTDFTLTISNVQSEDLADYFCQHYFNFPRTFGGGTKLEIT; 0.53 ratio to isotype control

Reference source: patent US20250333523A1
